assay-system: UniProtKB P48281
Sequence (P48281 whole entry): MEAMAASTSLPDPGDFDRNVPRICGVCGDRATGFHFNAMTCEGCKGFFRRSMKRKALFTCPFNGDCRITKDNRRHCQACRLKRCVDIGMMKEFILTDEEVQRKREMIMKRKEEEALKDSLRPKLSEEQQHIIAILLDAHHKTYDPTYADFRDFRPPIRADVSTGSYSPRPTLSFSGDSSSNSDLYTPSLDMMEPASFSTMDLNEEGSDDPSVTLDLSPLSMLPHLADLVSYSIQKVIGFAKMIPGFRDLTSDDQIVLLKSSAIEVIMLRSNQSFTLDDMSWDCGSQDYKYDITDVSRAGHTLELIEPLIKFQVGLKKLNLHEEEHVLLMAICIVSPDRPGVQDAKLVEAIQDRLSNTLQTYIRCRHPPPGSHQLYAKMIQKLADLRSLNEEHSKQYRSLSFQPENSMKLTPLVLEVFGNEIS
assay-text: Activation of VDR in mouse ASZ cells assessed as up-regulation of Cyp24A1 mRNA at 5 uM after 24 hrs by quantitative PCR analysis relative to control
Assay type: ADME, cell-based
observation-type: Activity

> print(dat)
                                entry.smiles      assay.system  result
 1  CC(C)CCC[C@@H](C)[C@H]1CC[C@H]2[C@@H](OC(=O)CCc3cccc(O)c3)CCC[C@]12C  UniProtKB P48281    7.6%
 2  CC(C)CCC[C@@H](C)[C@H]1CC[C@H]2[C@H](OC(=O)c3cccc(O)c3)CCC[C@]12C  UniProtKB P48281    1.6%
 3  CC(C)CCC[C@@H](C)[C@H]1CC[C@H]2[C@@H](Nc3ccccc3O)CCC[C@]12C  UniProtKB P48281    4.4%
 4  CC(C)CCC[C@@H](C)[C@H]1CC[C@H]2[C@@H](OC(=O)Cc3cccc(O)c3)CCC[C@]12C  UniProtKB P48281    3.5%
 5  CC(C)CCC[C@@H](C)[C@H]1CC[C@H]2[C@H](C(=O)c3cccc(O)c3)CCC[C@]12C  UniProtKB P48281    7.8%
 6  CC(C)CCC[C@@H](C)[C@H]1CC[C@H]2[C@@H](NC(=O)c3cccc(O)c3)CCC[C@]12C  UniProtKB P48281    1.8%
 7  CC(C)CCC[C@@H](C)[C@H]1CC[C@H]2/C(=C/C(=O)Nc3cccc(O)c3)CCC[C@]12C  UniProtKB P48281    4.5%
 8  CC(C)CCC[C@@H](C)[C@H]1CC[C@H]2[C@H](Nc3ccc(O)cc3)CCC[C@]12C  UniProtKB P48281      3%
 9  CC(C)CCC[C@@H](C)[C@H]1CC[C@H]2[C@@H](Nc3cccc(O)c3)CCC[C@]12C  UniProtKB P48281    1.8%
10  CC(C)CCC[C@@H](C)[C@H]1CC[C@H]2[C@H](CCO)CCC[C@]12C  UniProtKB P48281    1.3%
11  CC(C)CCC[C@@H](C)[C@H]1CC[C@H]2/C(=C/C(=O)Nc3ccc(O)cc3)CCC[C@]12C  UniProtKB P48281    4.4%
12  CC(C)CCC[C@@H](C)[C@H]1CC[C@H]2/C(=C/C(=O)Nc3ccccc3O)CCC[C@]12C  UniProtKB P48281     14%
13  CC(C)CCC[C@@H](C)[C@H]1CC[C@H]2[C@@H](OC(=O)c3cccc(O)c3)CCC[C@]12C  UniProtKB P48281    1.9%
14  CC(C)CCC[C@@H](C)[C@H]1CC[C@H]2[C@@H](Nc3ccc(O)cc3)CCC[C@]12C  UniProtKB P48281    2.7%

* * *

assay-text: Inhibition of hedgehog signaling in mouse C3H10T1/2 cells assessed as reduction in Gli1 mRNA level at 5 uM after 24 hrs by quantitative PCR analysis relative to control
Assay type: cell-based
measurement-conditions: C3H 10T1/2, values are per cent of control
observation-type: response, % of control (%)

> print(dat)
                                entry.smiles  recorded.number
 1  CC(C)CCC[C@@H](C)[C@H]1CC[C@H]2/C(=C/CO)CCC[C@]12C             15.1
 2  CC(C)CCC[C@@H](C)[C@H]1CC[C@H]2[C@H](c3cccc(O)c3)CCC[C@]12C             47.9
 3  CC(C)CCC[C@@H](C)[C@H]1CC[C@H]2[C@@H](OC(=O)/C=C/c3cccc(O)c3)CCC[C@]12C             57.2
 4  CC(C)CCC[C@@H](C)[C@H]1CC[C@H]2[C@@H](OC(=O)Cc3cccc(O)c3)CCC[C@]12C              1.8
 5  CC(C)CCC[C@@H](C)[C@H]1CC[C@H]2[C@@H](OC(=O)/C=C/c3ccccc3O)CCC[C@]12C             94.2
 6  CC(C)CCC[C@@H](C)[C@H]1CC[C@H]2[C@@H](OC(=O)CCc3ccc(O)cc3)CCC[C@]12C             20.1
 7  CC(C)CCC[C@@H](C)[C@H]1CC[C@H]2[C@@H](O)CCC[C@]12C             46.4
 8  CC(C)CCC[C@@H](C)[C@H]1CC=C2[C@H](O)CCC[C@@]21C             90.1
 9  CC(C)CCC[C@@H](C)[C@H]1CC[C@H]2/C(=C/C(=O)Nc3ccccc3O)CCC[C@]12C              1.1
10  CC(C)CCC[C@@H](C)[C@H]1CC[C@H]2C(=O)CCC[C@]12C             66.1
11  CC(C)CCC[C@@H](C)[C@H]1CC[C@H]2/C(=C/C(=O)Nc3cccc(O)c3)CCC[C@]12C             12.1
12  CC(C)CCC[C@@H](C)[C@H]1CC[C@H]2[C@@H](NC(=O)c3cccc(O)c3)CCC[C@]12C              2.5
13  CC(C)CCC[C@@H](C)[C@H]1CC[C@H]2[C@H](CO)CCC[C@]12C             55.1
14  CC(C)CCC[C@@H](C)[C@H]1CC[C@H]2[C@@H](Nc3ccc(O)cc3)CCC[C@]12C              0.7
15  CC(C)CCC[C@@H](C)[C@H]1CC[C@H]2[C@H](Nc3ccc(O)cc3)CCC[C@]12C              1.3
16  CC(C)CCC[C@@H](C)[C@H]1CC[C@H]2[C@H](CCO)CCC[C@]12C              2.8
17  CC(C)CCC[C@@H](C)[C@H]1CC[C@H]2[C@@H](OC(=O)/C=C/c3ccc(O)cc3)CCC[C@]12C             62.1
